# Test system: PRKCQ;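 further: KINOMEscan kinase panel screen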
# stated-conditions: concentration: 1 μM,replicates: in singlicate; n = 1
# note: boundary value 2% maps to NOT MET; %Inh below it maps to MET

- compound: "CCn1c(-c2nonc2N)nc2cncc(CNC3CCNCC3)c21.Cl"
  answer-label: "NOT MET"
- compound: "OCCn1cc(-c2cnc3nnn(Cc4ccc5ncccc5c4)c3n2)cn1"
  answer-label: "MET"
- compound: "CCOC(=O)N1CCC(n2cnc(-c3ccc(F)cc3)c2-c2ccnc(N)n2)CC1"
  answer-label: "MET"
- compound: "COc1cccc(CNC(=O)NC2CCN(c3ccnc(Nc4cc(OC)c(OC)c(OC)c4)n3)C2)c1 (stereo not drawn)"
  answer-label: "NOT MET"
- compound: "CS(=O)(=O)c1cccc(CNc2nc(Nc3ccc4c(c3)[C@@H]3C[C@@H]4CNC3=O)ncc2C(F)(F)F)c1"
  answer-label: "NOT MET"
- compound: "CC(=O)c1c(-c2ccncc2)[nH]c(-c2ccncc2)c1C"
  answer-label: "MET"
- compound: "Cc1ccc2c(-c3ccnc(Nc4ccc(C(F)(F)F)cc4)n3)cnn2n1"
  answer-label: "MET"

// provenance: paper PMC5540273
